The values you see were collected from patent US9884043B2.

# system-name: 6His(GST)RORgamma-LBD (Homo sapiens)
# Construct: the applied RORgamma-LBD contains a 6-His and GST tag; GST (N); made in house; host or cells: baculovirus-infected Sf-21 insect cells
# Sequence (P51449 269-508 limits assumed): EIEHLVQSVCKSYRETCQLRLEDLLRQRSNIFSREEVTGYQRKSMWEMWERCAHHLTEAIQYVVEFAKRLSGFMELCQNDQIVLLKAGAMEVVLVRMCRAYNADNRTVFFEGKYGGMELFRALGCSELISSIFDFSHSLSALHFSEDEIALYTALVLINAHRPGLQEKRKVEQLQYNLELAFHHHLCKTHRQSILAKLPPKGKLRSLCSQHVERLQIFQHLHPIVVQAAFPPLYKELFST
# assay-text: TR-FRET assay (Protocol A), RORgamma-LBD / SRC1_2 co-activator peptide interaction
# Format: biochemical
# condition-summary: SRC1_2 peptide 0.1 μM, RORgamma-LBD 10 nM, overnight incubation at 4° C.
measurement-type: EC50 (nM)

{"compound": "O=S(=O)(c1sc(Cl)cc1Br)n1nc(-c2ccc(-c3nnn[nH]3)cc2)c2ccccc21 [Example 21C]", "system-name": "6His(GST)RORgamma-LBD (Homo sapiens)", "result-number": 617}
{"compound": "O=C(O)c1ccc(-c2nn(C(=O)c3cccc(Cl)c3Cl)c3ccccc23)cc1 [Example 11K]", "system-name": "6His(GST)RORgamma-LBD (Homo sapiens)", "result-number": 21.4}

A: O=C(O)c1ccc(-c2nn(S(=O)(=O)c3cccc(Cl)c3Cl)c3ccccc23)cc1 [Example 13E]
B: O=C(O)c1ccc(-c2nn(S(=O)(=O)c3cccc4nonc34)c3ccccc23)cc1 [Example 15D]
## Input // compare measured EC50 between A and B ; output the lower one Selection: enter the item's label.
## Output A

###

Listed below: IC50 values for each entry.
# system-name: HIS-tagged RORγ-LBD (Homo sapiens, UniProt P51449)
# Construct: HIS-tagged RORγ-LBD was recombinantly expressed in SF9 cells using a baculovirus expression system; made in house; host or cells: SF9 cells, baculovirus; crude lysate used
# assay-text: TR-FRET assay (Protocol B), RORγ-LBD lysate / biotinylated SRC1-2 LXXLL peptide
# Type: biochemical
# condition-summary: unpurified RORγ-LBD lysate ~10 nM, SRC1-2 peptide 450 nM

{"molecule": "COc1cccc(F)c1C(=O)n1nc(-c2ccc(C(=O)O)cc2F)c2ccccc21 [Example 24AT]", "system-name": "HIS-tagged RORγ-LBD (Homo sapiens, UniProt P51449)", "IC50": "< 0.05 µM"}
{"molecule": "O=C(O)Cc1ccc(-c2nn(C(=O)c3c(Cl)cccc3C(F)(F)F)c3cccnc23)cc1 [Example 24AD]", "system-name": "HIS-tagged RORγ-LBD (Homo sapiens, UniProt P51449)", "IC50": "0.5 to 10 µM"}
{"molecule": "NCc1ccc2c(-c3ccc(C(=O)O)cc3)nn(C(=O)c3c(Cl)cccc3C(F)(F)F)c2c1 [Example 27A]", "system-name": "HIS-tagged RORγ-LBD (Homo sapiens, UniProt P51449)", "IC50": "< 0.05 µM"}
{"molecule": "O=C(O)c1cc(F)c(-c2nn(C(=O)c3c(Cl)cccc3C(F)(F)F)c3cccc(F)c23)cc1Cl [Example 24X]", "system-name": "HIS-tagged RORγ-LBD (Homo sapiens, UniProt P51449)", "IC50": "0.05 to 0.5 µM"}
{"molecule": "N#Cc1ccc2c(-c3ccc(C(=O)O)cc3)nn(C(=O)c3c(Cl)cccc3C(F)(F)F)c2c1", "system-name": "HIS-tagged RORγ-LBD (Homo sapiens, UniProt P51449)", "IC50": "0.05 to 0.5 µM"}

## Input What measured IC50 goes with COc1cc(C(=O)O)ccc1-c1nn(C(=O)c2c(Cl)cccc2C(F)(F)F)c2cccc(F)c12 [Example 24Q] ?
## Output 0.05 to 0.5 µM

## Input Another molecule to look at: O=C(O)c1ccc(-c2nn(C(=O)c3c(Cl)cccc3C(F)(F)F)c3cccnc23)cc1F [Example 24AH]
## Output < 0.05 µM

## Input Another molecule to look at: "O=C(O)c1ccc(-c2nn(C(=O)c3c(Cl)cccc3C(F)(F)F)c3ccccc23)cc1C(F)F"
## Output < 0.05 µM
